B1: KRT71 (parent)
chain: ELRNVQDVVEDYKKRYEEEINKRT

Variants of: B1
Assay: protein stability index of a GFP-peptide fusion (GPS, HEK-293T) (PSI 1-6); higher = more stable;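 further: lentivirally expressed fusions sorted by FACS into six bins by GFP to DsRed ratio, PSI derived from sequencing read proportions per bin multiplied by bin number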
Conditions: c terminus: a fixed tail appended
// reported protein stability index for each item listed
Field format: numeric only.

Task: So what does the record say about protein stability index for Q6N ?
Result: 4.58

Task: Okay, and E19C ?
Result: 3.9

Task: Follow-up entry: E1G
Result: 2.72

Task: Another variant to check: K22R
Result: 4.21

Task: How about E19A ?
Result: 3.94
